# System: ACHN renal
# Protocol Summary: NCI tumour cell line growth inhibition, 48 h
*1 amine or outer side, *2 acyl side, *3 side chain or, on linkers, in order; H or OH if unused. Where a SMILES comes first, the peptide text is derived from it. [ ]: non-standard residue; d: D form. ξ: configuration not given here. X21 = CC[C@@H](C)C(N[*:1])C(=O)[*:2]; ξR = N=C(N)NCCCC(N)C(=O)O; ξI = CCC(C)C(N)C(=O)O; ξL = CC(C)CC(N)C(=O)O; ξK = NCCCCC(N)C(=O)O; ξV = CC(C)C(N)C(=O)O; ξA = CC(N)C(=O)O
Measure Name: GI50

Reference set, count: 6
[[record]]
molecule = "CCC(C)C1NC(=O)C(CC(C)C)NC(=O)C(C)NC(=O)C(C(C)C)NC(=O)C(CCCCN)NC(=O)C(CC(C)C)NC(=O)C(C(C)C)NC(=O)[C@H](C)NC(=O)C(C(C)CC)NC(=O)C(CCCN=C(N)N)NC(=O)C(CCCCN)NC(=O)C(CCCN=C(N)N)NC(=O)C(CCCCN)NC(=O)C([C@H](C)CC)NC(=O)C(CCCCN)NC1=O (stereo not given in full) (cyclo(A[ξV][ξL][ξK][ξV][ξA][ξL][ξI][ξK][X21][ξK][ξR][ξK][ξR][ξI]))"
tested_target = "ACHN renal"
assay_value = "1.79 µM"

[[record]]
molecule = "O=C1CCS/C(=N\\S(=O)(=O)c2ccc(N3N=C4c5ccccc5CC4C3c3cccs3)cc2)N1C(=O)c1ccccc1 (stereo not given)"
tested_target = "ACHN renal"
assay_value = "5.18 µM"

[[record]]
molecule = "C1COCCOCCOCCOCCO1.CC(=O)[CH-]C(C)=O.CC(=O)[CH-]C(C)=O.CC(=O)[CH-]C(C)=O.[V]"
tested_target = "ACHN renal"
assay_value = "12 µM"

[[record]]
molecule = "C=C1C(=O)O[C@H]2[C@H]1CC/C(COC(=O)c1ccccc1)=C\\CC[C@@]1(C)O[C@@H]21"
tested_target = "ACHN renal"
assay_value = "1.37 µM"

[[record]]
molecule = "COc1ccc2c(c1)C1(C(=O)N2)C(C#N)=C(c2ccccc2)Nc2c1c(-c1ccccc1)nn2-c1ccccc1 (stereo not given)"
tested_target = "ACHN renal"
assay_value = "6.16 µM"

[[record]]
molecule = "C=C1C[C@@]2(C)C(CC[C@]3(C)C2CC=C2C4CC(C)(C)C[C@@H](OC(=O)/C(C)=C\\C)[C@]4(C(=O)O)CC[C@]23C)C(C)(C)C1=O (stereo not given in full)"
tested_target = "ACHN renal"
assay_value = "2.04 µM"


Request: Let me know recorded GI50 for `O=C(Nc1cccc(-n2cc(-c3ccncc3)c(-c3ccc(O)c(Cl)c3)n2)c1)Nc1cccc(C(F)(F)F)c1` , thanks.
Response: 2.51 µM

Request: Let me know recorded GI50 for `CCOC(=O)c1cc(C(=O)c2cc(OC)c(OC)c(OC)c2)n2ccccc12` , thanks.
Response: 10.1 µM

Request: Let me know recorded GI50 for `NC(=O)c1ccc2nc3c(n2c1)C(=O)C(=O)c1ccccc1-3` , thanks.
Response: 1.34 µM

Request: Let me know recorded GI50 for `COc1ccc2c(c1)/C(=C/c1cc(OC)c(OC)c(OC)c1)C(=O)N2C` , thanks.
Response: 3.6 µM
